All values here come from the array DNA melting data of Ke et al. (doi:10.1101/2024.01.08.574731).

Can you tell me folding enthalpy for the items I'm about to list?
test: folding enthalpy; higher = less favourable; fluorescence melt of hairpins on a sequencing array, two-state fit; conditions: sodium 0.088 M
One number for each entry, in kcal/mol.

Guide cases for folding enthalpy, answers given:
| Input sequence | folding enthalpy, kcal/mol |
| --- | --- |
| GTGGCCCGAAAGGGCAC (((.(((....)))))) | -10.3 |
| GTACTCTCGAAAGAGTAC (((..(((....)))))) | -36.9 |
| GTCGTCGAAAGACAGAC ((((((....))).))) | -26.7 |

Parameters: items (list). Returns: folding enthalpy for each item.
1. GGGATTTCGAAAGAACCC (((..(((....))))))
2. GAACCTGGAAACAAGTTC ((((.((....)).))))
3. GTCCAACCGAAAGGTGAC (((..(((....))))))

1. -22.6
2. -15.9
3. -16.3

---

Can you tell me folding enthalpy for the items I'm about to list?
experiment: folding enthalpy; higher = less favourable; fluorescence melt of hairpins on a sequencing array, two-state fit; conditions: sodium 0.088 M
One number for each entry, in kcal/mol.

| Input sequence | Measured value |
| --- | --- |
| GCAGGTCCGAAAGGATGC (((..(((....)))))) | -16.6 |
| GGTATGGGAAACTATGCC ((.((.(....).)).)) | -23.7 |
| AGTTAGAAATAACT (((((....))))) | -9.79 |

Parameters: items (list). Returns: folding enthalpy for each item.
1. GCATGGCGAAAGCCCGGC ((..(((....)))..))
2. GGACATGGAAACATGTCC (((((((....)))))))

1: -15.7; 2: -44.6

Find the recorded folding enthalpy belonging to GTATGGGGAAACCCATGC (.(((((....))))).) and report it. -20.9

---

test: folding enthalpy; higher = less favourable; fluorescence melt of hairpins on a sequencing array, two-state fit; conditions: sodium 0.088 M
Can you tell me folding enthalpy for the items I'm about to list?
Give bare numbers, in kcal/mol.

| Input sequence | folding enthalpy [kcal/mol] |
| --- | --- |
| GTGGATGGAAACATCTGC (..((((....))))..) | -23 |
| GTGACACGAAAGTGACAC (((.(((....))).))) | -39.7 |
| GTGGAGGAAACTCCAC ((((((....)))))) | -35.2 |
| GGCAACCGAAAGGTCGCC (((.(((....))).))) | -37.3 |
| GCGAGACTTCGC ((((....)))) | -10.4 |

Find the recorded folding enthalpy belonging to GGGGTACGAAAGTAGCCC (((.(((....))).))) and report it. -42.7

---

assay: folding enthalpy; higher = less favourable; fluorescence melt of hairpins on a sequencing array, two-state fit; conditions: sodium 0.088 M
Assay metric: folding enthalpy (kcal/mol)
Give bare numbers, in kcal/mol.

Guide cases for folding enthalpy, answers given:
| Input sequence | Unit annotation | Measured value |
| --- | --- | --- |
| GATCATATTAATGATC ((((((....)))))) | kcal/mol | -34.1 |
| GCGTAAGGAAACCTACGC (((((.(....).))))) | kcal/mol | -40 |
| CGTGTCGGAAACGATACG (((.(((....))).))) | kcal/mol | -39.1 |
| GGACCACGAAAGTGTTCC (((.(((....))).))) | kcal/mol | -24.8 |
| GCACAGCGAAAGCTTTGC (((.(((....))).))) | kcal/mol | -41.2 |
| GATCTGCGCACAGATC ((((((....)))))) | kcal/mol | -38.3 |
| GCGTCGGGAAACTGACGC (((((.(....).))))) | kcal/mol | -49.8 |
| GATCTAAGGCTAGATC ((((((....)))))) | kcal/mol | -25.3 |
| GATGGGGGAAACCCCACC (.(((((....))))).) | kcal/mol | -12.6 |
| GATCCCTGTCGGGATC ((((((....)))))) | kcal/mol | -35 |

Parameters: items (list). Returns: folding enthalpy for each item.
1. GGGTAGGGAAACCTGCCC (((.(((....))).)))
2. GCCCACGAAAGTGTAGGC ((((((....)))..)))
3. GATCCGAATCCGGATC ((((((....))))))

1: -45; 2: -24.5; 3: -38.5

Parameters: items (list). Returns: folding enthalpy for each item.
1. GCTAAGCGAAAGCGAAGC (((..((....))..)))
2. GGGTACGAAAGTATTCCC ((((((....)))..)))
3. GATTTCGGAAACGAAATC (((((((....)))))))
4. GACCATGGAAACATGGTC (((((((....)))))))
5. GCGGTCGCCGC ((((...))))
6. GTTACACCGAAAGGTAAC (((..(((....))))))
7. GTGTTTGGAAACAAGCAC (((.(((....))).)))

1: -26.7; 2: -20.4; 3: -41.2; 4: -43.1; 5: -5.62; 6: -15.8; 7: -30.5

Parameters: items (list). Returns: folding enthalpy for each item.
1. GCTGTCCCGAAAGGGAGC (((..(((....))))))
2. GAGTTTGGAAACAAACTC (((((((....)))))))
3. GGAACAGAAATGTTCC ((((((....))))))
4. GTCTCAGGAAACTGAGAC (((((((....)))))))
5. GCGTCTTCACGC ((((....))))

1: -11; 2: -43.1; 3: -39; 4: -46.1; 5: -26.9
